- Test system: Human immunodeficiency virus 1
- experimentalProtocol: Antiviral activity against HIV1 infected in HEK293T cells by p24 ELISA based phenotypic assay
- Type: functional, organism-based
- measurementParameters: Human immunodeficiency virus 1, HEK-293T
reportedProperty: pIC50
pIC50 (log units): -log10 of the concentration in mol/L.

# compound, pIC50
records = [
    ("NNC(=O)c1[nH]c2ccc(Cl)cc2c1C1(c2ccccc2)CC1", 5.36),
    ("CCOC(=O)c1[nH]c2ccc(Cl)cc2c1C(OC)c1ccccc1 (stereo not drawn)", 7.70),
]

Human immunodeficiency virus 1 / pIC50 / Cc1ccnc2c1NC(=O)c1cccnc1N2C1CC1 : value?
6.92
